- target-under-test: NMDA receptor glycine site (Rattus norvegicus, UniProt P35439)
- Construct: to brain membranes bearing the receptor; tissue Analytical Biological Services Inc; host or cells: rat brain membranes (cerebral cortex and hippocampus, male Sprague Dawley rats)
- protocol-notes: Test A: Inhibition of binding of [3H]-MDL105,519 to brain membranes
- cond: inhibition of [3H]MDL105,519 binding, brain membranes
quantity-name: Ki

[[record]]
compound = "CCCC(c1ccccn1)n1nc(O)c2[nH]c3cc(Cl)ccc3c(=O)c2c1=O (racemic)"
target_under_test = "NMDA receptor glycine site (Rattus norvegicus, UniProt P35439)"
quantity_name = "Ki"
endpoint_value = "> 10 µM"


----------
- target-under-test: NMDA receptor glycine site (Rattus norvegicus, UniProt P35439)
- Construct: to brain membranes bearing the receptor; tissue Analytical Biological Services Inc; host or cells: rat brain membranes (cerebral cortex and hippocampus, male Sprague Dawley rats)
- protocol-notes: Test A: Inhibition of binding of [3H]-MDL105,519 to brain membranes
- cond: inhibition of [3H]MDL105,519 binding, brain membranes (rat and human membranes described; table does not say which)
pKi: −log10 of the molar value.
quantity-name: pKi

[[record]]
molecule = "CC(c1ccco1)n1nc(O)c2[nH]c3cc(Cl)ccc3c(=O)c2c1=O (racemic)"
quantity_name = "pKi"
endpoint_value = 6.82

[[record]]
molecule = "CC(C)C(c1ccncc1)n1nc(O)c2[nH]c3cc(Cl)ccc3c(=O)c2c1=O (racemic) [Ex. 8]"
quantity_name = "pKi"
endpoint_value = 5.28

[[record]]
molecule = "COc1ccc(C(C)n2nc(O)c3[nH]c4cc(Cl)ccc4c(=O)c3c2=O)cn1 (racemic) [Ex. 14]"
quantity_name = "pKi"
endpoint_value = 6.51

[[record]]
molecule = "O=c1c2ccc(Cl)cc2[nH]c2c(O)nn(CCc3cccnc3Cl)c(=O)c12 [Ex. 15]"
quantity_name = "pKi"
endpoint_value = 6.17

[[record]]
molecule = "CC(C)CC(c1ccncc1)n1[nH]c(=O)c2nc3cc(Cl)ccc3c(O)c2c1=O (racemic) [Ex. 12]"
quantity_name = "pKi"
endpoint_value = 5.28

[[record]]
molecule = "COc1cnccc1C(C)n1nc(O)c2[nH]c3cc(Cl)ccc3c(=O)c2c1=O (racemic) [Ex. 13]"
quantity_name = "pKi"
endpoint_value = 6.25

[[record]]
molecule = "CC(c1cnccn1)n1nc(O)c2[nH]c3cc(Cl)ccc3c(=O)c2c1=O (centres unmarked) [Ex. 23]"
quantity_name = "pKi"
endpoint_value = 6.47

[[record]]
molecule = "CC(c1cc2ccccc2s1)n1nc(O)c2[nH]c3cc(Cl)ccc3c(=O)c2c1=O (centres unmarked) [Ex. 21]"
quantity_name = "pKi"
endpoint_value = 6.75


----------
- target-under-test: NMDA receptor glycine site (Rattus norvegicus)
- Construct: to brain membranes bearing the receptor; tissue Analytical Biological Services Inc; host or cells: rat brain membranes (cerebral cortex and hippocampus, male Sprague Dawley rats)
- protocol-notes: Test A: Inhibition of binding of [3H]-MDL105,519 to brain membranes
- cond: inhibition of [3H]MDL105,519 binding, brain membranes (rat and human membranes described; table does not say which)
# Ki annotations
quantity-name: Ki (nM)

[[record]]
molecule = "CC(c1ccc(C#N)s1)n1nc(O)c2[nH]c3cc(Cl)ccc3c(=O)c2c1=O (stereo not shown)"
target_under_test = "NMDA receptor glycine site (Rattus norvegicus)"
quantity_name = "Ki"
endpoint_unit = "nM"
endpoint_value = 692

[[record]]
molecule = "CC(c1ccnc(Cl)c1)n1nc(O)c2[nH]c3cc(Cl)ccc3c(=O)c2c1=O (racemic)"
target_under_test = "NMDA receptor glycine site (Rattus norvegicus)"
quantity_name = "Ki"
endpoint_unit = "nM"
endpoint_value = 51

[[record]]
molecule = "CCCC(c1ccncc1)n1nc(O)c2[nH]c3cc(Cl)ccc3c(=O)c2c1=O (racemic)"
target_under_test = "NMDA receptor glycine site (Rattus norvegicus)"
quantity_name = "Ki"
endpoint_unit = "nM"
endpoint_value = 4340

[[record]]
molecule = "CCC(c1ccccn1)n1[nH]c(=O)c2nc3cc(Cl)ccc3c(O)c2c1=O (racemic)"
target_under_test = "NMDA receptor glycine site (Rattus norvegicus)"
quantity_name = "Ki"
endpoint_unit = "nM"
endpoint_value = 1810


Every entry's value here was drawn from patent US20030153571A1.
